- MEASUREMENT_TARGET: T1, recombinant soluble human IL-6R (human, UniProt P08887 20-365)
- T1 construct: also called sIL-6R; shIL-6R
- T1 sequence: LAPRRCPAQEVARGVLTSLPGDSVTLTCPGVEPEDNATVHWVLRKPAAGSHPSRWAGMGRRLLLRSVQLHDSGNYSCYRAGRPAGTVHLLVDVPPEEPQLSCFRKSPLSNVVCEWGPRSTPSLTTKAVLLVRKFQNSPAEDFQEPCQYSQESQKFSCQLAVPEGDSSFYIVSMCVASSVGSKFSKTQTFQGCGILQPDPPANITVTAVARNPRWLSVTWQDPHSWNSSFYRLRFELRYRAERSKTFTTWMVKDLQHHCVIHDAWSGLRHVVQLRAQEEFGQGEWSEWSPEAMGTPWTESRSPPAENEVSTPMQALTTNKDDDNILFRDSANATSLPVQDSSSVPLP
- METHOD_SUMMARY: standard gp130 ELISA (competition); 10 ng/mL IL-6R, 50 ng/mL IL-6; column 'Potency'
Label key: Condition met means IC50 under 200 pM; Condition not met means IC50 of 200 pM or more.

Input: Dear colleague, could you confirm whether IC50 of ID-54V (VHH, Mutant of 5G9; also called 5G9 + R105H; not shown: C-terminal Flag- and His-tags of E. coli constructs) VHH: EVQLVESGGGLVQAGGSTRLTCKASGSIFNINSINVMAWYRQAPGKQRELVAIIGKGGGTNYADFVKGRFTISRDAAKNTVNLQMNSLKPEDTAVYYCYADYEDHDSPFNASWGQGTQVTVSS falls below 200 pM? Thanks.
Output: Condition met

Input: Dear colleague, could you confirm whether IC50 of ID-56V (VHH, Mutant of 5G9; also called 5G9 + F29S; not shown: C-terminal Flag- and His-tags of E. coli constructs) VHH: EVQLVESGGGLVQAGGSTRLTCKASGSISNINSINVMAWYRQAPGKQRELVAIIGKGGGTNYADFVKGRFTISRDAAKNTVNLQMNSLKPEDTAVYYCYADYEDRDSPFNASWGQGTQVTVSS falls below 200 pM? Thanks.
Output: Condition met

Input: Dear colleague, could you confirm whether IC50 of ID-57V (VHH, Mutant of 5G9; also called 5G9 + F29I; not shown: C-terminal Flag- and His-tags of E. coli constructs) VHH: EVQLVESGGGLVQAGGSTRLTCKASGSIININSINVMAWYRQAPGKQRELVAIIGKGGGTNYADFVKGRFTISRDAAKNTVNLQMNSLKPEDTAVYYCYADYEDRDSPFNASWGQGTQVTVSS falls below 200 pM? Thanks.
Output: Condition not met

Input: Dear colleague, could you confirm whether IC50 of ID-53V (VHH, Mutant of 5G9; also called 5G9 + F109H; not shown: C-terminal Flag- and His-tags of E. coli constructs) VHH: EVQLVESGGGLVQAGGSTRLTCKASGSIFNINSINVMAWYRQAPGKQRELVAIIGKGGGTNYADFVKGRFTISRDAAKNTVNLQMNSLKPEDTAVYYCYADYEDRDSPHNASWGQGTQVTVSS falls below 200 pM? Thanks.
Output: Condition not met

Input: Dear colleague, could you confirm whether IC50 of ID-55V (VHH, Mutant of 5G9; also called 5G9 + K23H; not shown: C-terminal Flag- and His-tags of E. coli constructs) VHH: EVQLVESGGGLVQAGGSTRLTCHASGSIFNINSINVMAWYRQAPGKQRELVAIIGKGGGTNYADFVKGRFTISRDAAKNTVNLQMNSLKPEDTAVYYCYADYEDRDSPFNASWGQGTQVTVSS falls below 200 pM? Thanks.
Output: Condition met

Input: Dear colleague, could you confirm whether IC50 of ID-59V (VHH, Mutant of 5G9; also called 5G9 + Y62D; not shown: C-terminal Flag- and His-tags of E. coli constructs) VHH: EVQLVESGGGLVQAGGSTRLTCKASGSIFNINSINVMAWYRQAPGKQRELVAIIGKGGGTNDADFVKGRFTISRDAAKNTVNLQMNSLKPEDTAVYYCYADYEDRDSPFNASWGQGTQVTVSS falls below 200 pM? Thanks.
Output: Condition met

Input: Dear colleague, could you confirm whether IC50 of ID-52V (VHH, Mutant of 5G9; also called 5G9 + F109H, R105H; not shown: C-terminal Flag- and His-tags of E. coli constructs) VHH: EVQLVESGGGLVQAGGSTRLTCKASGSIFNINSINVMAWYRQAPGKQRELVAIIGKGGGTNYADFVKGRFTISRDAAKNTVNLQMNSLKPEDTAVYYCYADYEDHDSPHNASWGQGTQVTVSS falls below 200 pM? Thanks.
Output: Condition not met

Input: Dear colleague, could you confirm whether IC50 of 5G9 (VHH, also called VIL-5G9; 'Wild type' 5G9; not shown: C-terminal Flag and 6xHis tags from vector pMEK222) VHH: EVQLVESGGGLVQAGGSTRLTCKASGSIFNINSINVMAWYRQAPGKQRELVAIIGKGGGTNYADFVKGRFTISRDAAKNTVNLQMNSLKPEDTAVYYCYADYEDRDSPFNASWGQGTQVTVSS falls below 200 pM? Thanks.
Output: Condition met

Input: Dear colleague, could you confirm whether IC50 of ID-58V (VHH, Mutant of 5G9; also called 5G9 + F65V; not shown: C-terminal Flag- and His-tags of E. coli constructs) VHH: EVQLVESGGGLVQAGGSTRLTCKASGSIFNINSINVMAWYRQAPGKQRELVAIIGKGGGTNYADVVKGRFTISRDAAKNTVNLQMNSLKPEDTAVYYCYADYEDRDSPFNASWGQGTQVTVSS falls below 200 pM? Thanks.
Output: Condition not met
